# test.description: Plasma kinetics after single oral dose of 300 mg Pycnogenol in healthy volunteers
# Format: in vivo, human
# condition.notes: both sexes, human, plasma, oral, 300 mg
metric: concentration at 0.5 h

q: Which concentration at 0.5 h is reported for this molecule? Oc1cc(O)c2c(c1)O[C@H](c1ccc(O)c(O)c1)[C@@H](O)C2 [Catechin, (+)-catechin]
a: ~60 ng/mL

###

# test.description: Plasma kinetics after single oral dose of 300 mg Pycnogenol in healthy volunteers
# Format: in vivo, human
# condition.notes: both sexes, human, plasma, oral, 300 mg, single dose 300 mg Pycnogenol, total plasma; read-out: cmax converted to molar concentration
Provide the reported Cmax of each item.

Some entries whose results are on file:
COc1cc(/C=C/C(=O)O)ccc1O [Ferulic acid, ferulic acid] ... ~75 nM
O=C1CCC(Cc2ccc(O)c(O)c2)O1 (stereo not shown) [M1, δ-(3,4-Dihydroxy-phenyl)-γ-valerolactone] ... ~20 nM
O=C(O)/C=C/c1ccc(O)c(O)c1 [Caffeic acid, caffeic acid] ... ~90 nM

Consider now this further compound.
q: Which Cmax is reported for this compound? Oc1cc(O)c2c(c1)O[C@H](c1ccc(O)c(O)c1)[C@@H](O)C2 [Catechin, (+)-catechin]
a: ~370 nM
